The measurements presented in this section are drawn from paper PMC7179226.

- ASSAY_TARGET: CAS3 (Sordaria macrospora)
- Construct: gene SMAC_03179; primers imply N-terminus (M)MPVTNEE and C-terminus KTVRVV-LE-His6
- ASSAY_DETAILS: stopped-flow CO2 hydration inhibition assay
- Assay type: biochemical
- Sequence (F7VU04 entry or part of it): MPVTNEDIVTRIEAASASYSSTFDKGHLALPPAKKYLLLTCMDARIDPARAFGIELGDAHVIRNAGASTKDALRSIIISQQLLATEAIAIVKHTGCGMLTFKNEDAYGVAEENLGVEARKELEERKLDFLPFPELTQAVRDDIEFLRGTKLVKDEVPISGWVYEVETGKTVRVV
MEASURED_ATTRIBUTE: pKi
# log scale: pKi equals minus log10 of the concentration in mol/L

Worked examples follow.
INSERT INTO assay_data (structure_as_smiles, obs_value) VALUES
  ('O=C1NS(=O)(=O)c2ccccc21', 6.72),
  ('Cc1ccc(-c2cc(C(F)(F)F)nn2-c2ccc(S(N)(=O)=O)cc2)cc1', 6.17);

Alright, here's another molecule for you.
# pKi (molecule: NS(=O)(=O)c1cc2c(cc1Cl)NCNS2(=O)=O ) is 6.26

====

- ASSAY_TARGET: CAS3 (Sordaria macrospora)
- Construct: gene SMAC_03179; primers imply N-terminus (M)MPVTNEE and C-terminus KTVRVV-LE-His6
- ASSAY_DETAILS: stopped-flow CO2 hydration inhibition assay
- Type: biochemical
- MEASUREMENT_CONDITIONS: read-out: KI* (nM) / CAS3 ^c / β
Note: every record was labeled by where its Ki sits among low (below 90 nM), intermediate (90 nM to below 400 nM), high (400 nM or more)

Look over these answered cases.
INSERT INTO assay_data (compound, assigned_label) VALUES
  ('Cc1onc(-c2ccccc2)c1-c1ccc(S(N)(=O)=O)cc1 [VLX]', 'high'),
  ('NS(=O)(=O)c1ccc(S(=O)(=O)Nc2cccc3c(Cl)c[nH]c23)cc1 [IND]', 'intermediate'),
  ('Cn1nc(S(N)(=O)=O)sc1=N [compound 14, deacetylated precursor of methazolamide]', 'intermediate'),
  ('NS(=O)(=O)c1cc(Cl)c(Cl)c(S(N)(=O)=O)c1 [DCP, dichlorophnamide]', 'low'),
  ('NS(=O)(=O)c1ccc(N2CCCCS2(=O)=O)cc1 [SLT, sulthiame]', 'high');

Query block: # bin label for CC1(C)O[C@@H]2[C@@H](CO[C@@]3(COS(N)(=O)=O)OC(C)(C)O[C@@H]23)O1 [TPM]
Result block: intermediate

Query block: # bin label for CCN1CCCC1CNC(=O)c1cc(S(N)(=O)=O)ccc1OC (stereo not shown) [SLP]
Result block: high

Query block: # bin label for NS(=O)(=O)c1ccc(CO)cc1 [compound 16, 4-hydroxymethyl-benzenesulfonamide]
Result block: low

Query block: # bin label for NS(=O)(=O)c1nnc(NS(=O)(=O)c2ccccc2)s1 [BZA, benzolamide]
Result block: low

Query block: # bin label for NS(=O)(=O)Cc1noc2ccccc12 [ZNS]
Result block: high

Query block: # bin label for CCN[C@H]1CN(CCCOC)S(=O)(=O)c2sc(S(N)(=O)=O)cc21 [BRZ, brinzolamide]
Result block: low

====

Measured Ki accompanies every entry in the list below.
- ASSAY_TARGET: CAS3 (Sordaria macrospora)
- Construct: gene SMAC_03179; primers imply N-terminus (M)MPVTNEE and C-terminus KTVRVV-LE-His6
- ASSAY_DETAILS: biochemical
- MEASUREMENT_CONDITIONS: read-out: KI* (nM) / CAS3 ^c / β
- Sequence (F7VU04 1-174): as the sequence (F7VU04 entry or part of it) above
Report the figure in nM without appending any unit label.

Worked examples follow.
INSERT INTO assay_data (structure_as_smiles, measured_attribute, obs_value) VALUES
  ('Nc1ccc(S(=O)(=O)Nc2nnc(S(N)(=O)=O)s2)cc1', 'Ki', 85),
  ('Nc1ccc(S(N)(=O)=O)cc1Cl', 'Ki', 2080),
  ('Cc1ccc(S(N)(=O)=O)cc1', 'Ki', 560),
  ('Nc1ccc(S(=O)(=O)NCCc2ccc(S(N)(=O)=O)cc2)cc1', 'Ki', 84);

Alright, here's another compound for you.
# Ki (compound: Nc1ccc(S(=O)(=O)Nc2ccc(S(N)(=O)=O)cc2)cc1 ) is 85

====

Measured Ki accompanies every entry in the list below.
- ASSAY_TARGET: CAS3 (Sordaria macrospora, UniProt F7VU04)
- Construct: gene SMAC_03179; primers imply N-terminus (M)MPVTNEE and C-terminus KTVRVV-LE-His6
- ASSAY_DETAILS: biochemical
- MEASUREMENT_CONDITIONS: read-out: KI* (nM) / CAS3 ^c / β
- Procedure: An Applied Photophysics stopped-flow instrument was used for assaying the CA catalyzed CO2 hydration activity. […] The initial rates of the CA-catalyzed CO2 hydration were followed for a period of 10–100 s for each assay. […] For each measurement, six traces of the initial 5%–10% of the reaction were used for determining the initial velocity. […] Uncatalyzed rates were determined in the same manner and subtracted from total observed rates. […]
Report the figure in nM without appending any unit label.

Worked examples follow.
INSERT INTO results (compound, measured_attribute, reading_unit, obs_value) VALUES
  ('NS(=O)(=O)c1cc(Cl)cc(Cl)c1O [compound 10]', 'Ki', 'nM', 350),
  ('NS(=O)(=O)c1ccc(C(=O)O)cc1 [compound 18]', 'Ki', 'nM', 226),
  ('NS(=O)(=O)c1ccc(CCO)cc1 [compound 17]', 'Ki', 'nM', 507);

# Ki (compound: Nc1cc(Cl)c(S(N)(=O)=O)cc1S(N)(=O)=O [compound 12] ) is 90

# Ki (compound: Nc1ccc(S(N)(=O)=O)cc1Br [compound 9] ) is 712

# Ki (compound: NS(=O)(=O)c1cccc(S(N)(=O)=O)c1 [compound 3] ) is 83

# Ki (compound: Nc1cc(C(F)(F)F)c(S(N)(=O)=O)cc1S(N)(=O)=O [compound 11] ) is 235

# Ki (compound: Nc1ccc(S(=O)(=O)NCc2ccc(S(N)(=O)=O)cc2)cc1 [compound 23] ) is 89

# Ki (compound: NCc1ccc(S(N)(=O)=O)cc1 [compound 5] ) is 726

# Ki (compound: NS(=O)(=O)c1ccc(CCNS(=O)(=O)c2ccc([N+](=O)[O-])cc2CO)cc1 [compound 21] ) is 95

# Ki (compound: NCCc1ccc(S(N)(=O)=O)cc1 [compound 6] ) is 441

# Ki (compound: Nc1ccc(S(N)(=O)=O)cc1F [compound 7] ) is 585

# Ki (compound: NS(=O)(=O)c1ccc(O)cc1 [compound 15] ) is 605

# Ki (compound: Nc1nccc(Nc2ccc(S(N)(=O)=O)cc2)n1 [compound 19] ) is 91
